target: IL-2 protein (Homo sapiens, UniProt P60568, C145S); experiment: Isothermal titration calorimetry (ITC), interaction with IL-2; conditions: SDS with IL-2, 7.69 mM sodium phosphate buffer, 25° C.; read-out: equilibrium dissociation constant Kd
Sequence (P60568 21-153 C145S): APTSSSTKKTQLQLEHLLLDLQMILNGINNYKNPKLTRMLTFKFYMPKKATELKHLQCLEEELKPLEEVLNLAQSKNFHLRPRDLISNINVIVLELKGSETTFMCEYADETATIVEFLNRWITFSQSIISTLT
pKd: −log10 of the molar value.
measurement name: pKd

1. CCCCCCCCCCCCOS(=O)(=O)[O-].[Na+] [SDS, sodium dodecyl sulfate] | ~4.43
